Data origin: patent US10577337B2

# experiment description: Aqueous solubility
# Assay type: physicochemical
# experimental conditions: aqueous
measurement type: solubility

Problem: Given the compound CC(=O)Oc1ccccc1C(=O)Nc1ncc([N+](=O)[O-])s1 [nitazoxanide] , what is its reported solubility?
Solution: < 100 µg/mL
